// z-score of subpopulation abundance lookup, one value per entry
- System: Saccharomyces cerevisiae BY4741 SeMeCo community
- Method Notes: z-score of subpopulation abundance vs DMSO median, subpopulation auxotrophic for HUM; higher = larger share of this subpopulation than in DMSO controls
- Test Parameters: 10 µM; 24 h; SM minimal medium; subpopulation (auxotrophy): HUM
Give your answer as a number; write no unit.

Example results:
INSERT INTO assay_data (compound, numeric_result) VALUES
  ('CCN1CC2(OC(=O)c3ccccc3NC(C)=O)CCC(OC)C34C1C(CC23)C1(O)CC(OC)C2CC4C1(O)C2OC (centres undefined)', 0.34),
  ('CNC1CC(N)C(O)C(OC2OC(CO)C(O)C3OC4(OC(C(N)CO)C(O)C(O)C4O)OC23)C1O (centres undefined)', -0.41),
  ('C=CCN1C[C@H](C(=O)N(CCCN(C)C)C(=O)NCC)C[C@@H]2c3cccc4[nH]cc(c34)C[C@H]21', -0.37);

// moving on: another record for z-score of subpopulation abundance
Ask: Request the reported z-score of subpopulation abundance associated with COc1ccc2c3c([nH]c2c1)C(C)=NCC3
Result: -6.26

====

As shown below, each of these compounds has a reported z-score of subpopulation abundance value.
- System: Saccharomyces cerevisiae BY4741 SeMeCo community
- Method Notes: z-score of subpopulation abundance vs DMSO median, subpopulation auxotrophic for L; higher = larger share of this subpopulation than in DMSO controls
- Test Parameters: 10 µM; 24 h; SM minimal medium; subpopulation (auxotrophy): L
Where a name gives a salt, the structure may show the parent alone.
# print the numeric value only

INSERT INTO results (compound, target_entity, readout, numeric_result) VALUES
  ('CN1[C@@H]2C[C@@H](OC(=O)[C@H](CO)c3ccccc3)C[C@H]1[C@@H]1O[C@@H]12 [Scopolamine HBr trihydrate]', 'Saccharomyces cerevisiae BY4741 SeMeCo community', 'z-score of subpopulation abundance', -0.39);

Ask: Report z-score of subpopulation abundance for CC(=O)O[C@H]1C[C@@H]2CC[C@@H]3[C@H](CC[C@@]4(C)[C@H]3C[C@H]([N+]3(C)CCCCC3)[C@@H]4OC(C)=O)[C@@]2(C)C[C@@H]1[N+]1(C)CCCCC1 [Pancuronium dibromide] please.
Result: -0.47

Ask: What measured z-score of subpopulation abundance goes with O=C(O[C@H]1C[C@H]2CC[C@@H](C1)[N+]21CCCC1)C(O)(c1ccccc1)c1ccccc1 [Trospium chloride] ?
Result: -0.17

Ask: Entry under review: C=CC[C@]1(O)CC[C@H]2[C@@H]3CCC4=CC(=O)CCC4=C3C=C[C@@]21C . Reported z-score of subpopulation abundance?
Result: 0.59

Ask: Quick one: z-score of subpopulation abundance of COc1ccc2[nH]cc(CCN)c2c1 ?
Result: 0.52

Ask: Value lookup for z-score of subpopulation abundance; key = C=CN1CCCC1=O.II
Result: 0.47

Ask: # z-score of subpopulation abundance lookup, item CN1C(=O)COc2c(C(=O)NC3CN4CCC3CC4)cc(Cl)cc21 (configuration not stated) [Azasetron HCl]
Result: 0.07

Ask: Given the entry COc1cc2c(cc1OC)C1CC(=O)C(CC(C)C)CN1CC2 (configuration not stated) , report its measured z-score of subpopulation abundance.
Result: 1.69

Ask: z-score of subpopulation abundance lookup needed for CC[C@@]1(O)C(=O)OCc2c1cc1n(c2=O)Cc2cc3ccccc3nc2-1 , thanks.
Result: -0.35

Ask: What does the data say about its z-score of subpopulation abundance? Entry: COc1ccc2c(c1)[C@]13CCCC[C@@H]1[C@H](C2)N(C)CC3 [Dextromethorphan hydrobromide hydrate]
Result: 0.57

Ask: Record request: z-score of subpopulation abundance value, item COc1ccc(C(CN(C)C)C2(O)CCCCC2)cc1 (configuration not stated) [Venlafaxine HCl]
Result: 0.66

Ask: # z-score of subpopulation abundance lookup, item CC[N+](C)(CC)CCOC(=O)C(O)(c1ccccc1)c1ccccc1 [Methylbenactyzine Bromide]
Result: -0.83

Ask: # query: z-score of subpopulation abundance of entry COc1ccc2c3c([nH]c2c1)C(C)=NCC3
Result: 2.48

Ask: I'd like to know its z-score of subpopulation abundance. The compound in question is CN1[C@@H]2CC[C@H]1C[C@@H](OC(=O)[C@H](CO)c1ccccc1)C2
Result: 0.64

Ask: Please give the measured z-score of subpopulation abundance for this compound: C[CH2][Hg][S]c1ccccc1C(=O)[O-].[Na+]
Result: -2.54

Ask: Can you share its z-score of subpopulation abundance? I mean this compound: CNC1CC(N)C(O)C(OC2OC(CO)C(O)C3OC4(OC(C(N)CO)C(O)C(O)C4O)OC23)C1O (configuration not stated)
Result: 0.12

====

- Tested on: Saccharomyces cerevisiae BY4741 SeMeCo community
- Method Notes: z-score of subpopulation abundance vs DMSO median, subpopulation auxotrophic for HU; higher = larger share of this subpopulation than in DMSO controls
- Test Parameters: 10 µM; 24 h; SM minimal medium; subpopulation (auxotrophy): HU
z-score of subpopulation abundance overview
Lab note: record the figure alone, no unit after it.

Example entries begin here.
INSERT INTO assay_data (molecule, numeric_result) VALUES
  ('CN[C@@H]1[C@@H](O)[C@@H](O[C@@H]2[C@@H](O)[C@H](O[C@H]3O[C@H](CN)CC[C@H]3N)[C@@H](N)C[C@H]2N)OC[C@]1(C)O.CN[C@@H]1[C@@H](O)[C@@H](O[C@@H]2[C@@H](O)[C@H](O[C@H]3O[C@H]([C@@H](C)N)CC[C@H]3N)[C@@H](N)C[C@H]2N)OC[C@]1(C)O.CN[C@@H]1[C@@H](O)[C@@H](O[C@@H]2[C@@H](O)[C@H](O[C@H]3O[C@H]([C@@H](C)NC)CC[C@H]3N)[C@@H](N)C[C@H]2N)OC[C@]1(C)O [Gentamicin Sulfate]', -0.53),
  ('COc1cc2c(cc1OC)C1CC(=O)C(CC(C)C)CN1CC2 (stereo not given) [Tetrabenazine (Xenazine)]', -1.24),
  ('CN1[C@@H]2C[C@@H](OC(=O)[C@H](CO)c3ccccc3)C[C@H]1[C@@H]1O[C@@H]12 [Scopolamine HBr trihydrate]', -0.46),
  ('CN1[C@@H]2CC[C@H]1C[C@@H](OC(=O)[C@H](CO)c1ccccc1)C2 [Hyoscyamine]', -0.35);

API: the following record is the query input.
Ask: Find the recorded z-score of subpopulation abundance belonging to COc1ccc2c3c([nH]c2c1)C(C)=NCC3 [Harmaline] and report it.
Result: -7.98

====

Recorded z-score of subpopulation abundance by entry
- Test system: Saccharomyces cerevisiae BY4741 SeMeCo community
- Method Notes: z-score of subpopulation abundance vs DMSO median, subpopulation auxotrophic for M; higher = larger share of this subpopulation than in DMSO controls
- Test Parameters: 10 µM; 24 h; SM minimal medium; subpopulation (auxotrophy): M
Counter-ions that a name gives are not always drawn.
Response field accepts a number only; no unit should be typed.

INSERT INTO measurements (compound, readout, numeric_result) VALUES
  ('COC(=O)C1=CCCN(C)C1 [Arecoline HBr]', 'z-score of subpopulation abundance', 0.3),
  ('CN1[C@@H]2CC[C@H]1C[C@@H](OC(=O)[C@H](CO)c1ccccc1)C2 [Hyoscyamine]', 'z-score of subpopulation abundance', -0.65),
  ('CNC1CC(N)C(O)C(OC2OC(CO)C(O)C3OC4(OC(C(N)CO)C(O)C(O)C4O)OC23)C1O (stereo not drawn) [Hygromycin B]', 'z-score of subpopulation abundance', -0.9),
  ('COc1cc2c(cc1OC)C1CC(=O)C(CC(C)C)CN1CC2 (stereo not drawn) [Tetrabenazine (Xenazine)]', 'z-score of subpopulation abundance', 0.98),
  ('CC(NC(C)(C)C)C(=O)c1cccc(Cl)c1 (stereo not drawn) [Amfebutamone (Bupropion) HCl]', 'z-score of subpopulation abundance', 0.97),
  ('COc1ccc2c(c1)[C@]13CCCC[C@@H]1[C@H](C2)N(C)CC3 [Dextromethorphan hydrobromide hydrate]', 'z-score of subpopulation abundance', 0.1),
  ('CC(C)N(CCC(C(N)=O)(c1ccccc1)c1ccccn1)C(C)C (stereo not drawn) [Disopyramide]', 'z-score of subpopulation abundance', -0.53);

Ask: Hello, I am looking for reported z-score of subpopulation abundance with Saccharomyces cerevisiae BY4741 SeMeCo community for C=CC[C@]1(O)CC[C@H]2[C@@H]3CCC4=CC(=O)CCC4=C3C=C[C@@]21C [Altrenogest] . Could you help?
Result: 0.62

====

- Test system: Saccharomyces cerevisiae BY4741 SeMeCo community
- Method Notes: z-score of subpopulation abundance vs DMSO median, subpopulation auxotrophic for HM; higher = larger share of this subpopulation than in DMSO controls
- Test Parameters: 10 µM; 24 h; SM minimal medium; subpopulation (auxotrophy): HM
Readout: z-score of subpopulation abundance
Lab note: jot down the number only; don't add units.

Ask: What z-score of subpopulation abundance value was documented for this compound, CCCCCCCCCCCCCCCC[n+]1ccccc1 [Cetylpyridinium Chloride] ?
Result: 12.4

Ask: Please look up its z-score of subpopulation abundance: CC(C)(O)C(Cl)(Cl)Cl
Result: -0.53

Ask: Tell me the measured z-score of subpopulation abundance of C=CN1CCCC1=O.II , please.
Result: 1.1

Value source: the supplement of paper PMC8975748
